Test: Pharmacokinetic evaluation in C57 mice (i.g./i.v.)
Format: in vivo
Conditions: both sexes, mouse, plasma, oral, i.g. 2.0 mg/kg vs i.v. 1.0 mg/kg, read-out: Bioavailability F
Experimental: C57 mice were used as test animals. After intragastric (i.g.)/intravenous (i.v.) administration of the compounds of the present disclosure to C57 mice, the plasma concentrations of the compounds at different time points were determined by the LC/MS/MS method. The pharmacokinetic behaviors of the compounds of the present disclosure in C57 mice were studied, and their pharmacokinetic profiles were evaluated. Compound 16 and compound 32. […]
Measured bioavailability of individual entries
READOUT: bioavailability (%)

COMPOUND_STRING | READOUT | EXPERIMENTAL_VALUE
CO/N=C(\N)c1cc(NC(=O)[C@@H]2O[C@@](C)(C(F)(F)F)[C@@H](C)[C@H]2c2ccc(F)c(F)c2OC)ccn1 | bioavailability | 87.2
COc1c([C@H]2[C@H](C(=O)Nc3ccnc(/C(N)=N/O)c3)O[C@@](C)(C(F)(F)F)[C@H]2C)ccc(F)c1F | bioavailability | 82.6

----------
assay: Pharmacokinetic evaluation in C57 mice (i.g./i.v.); format: in vivo; settings: both sexes, mouse, plasma, iv, 1.0 mg/kg, read-out: Plasma concentration Cmax
Collected Cmax values appear next to each entry.

COMPOUND_STRING | Cmax / ng/mL
COc1c([C@H]2[C@H](C(=O)Nc3ccnc(/C(N)=N/O)c3)O[C@@](C)(C(F)(F)F)[C@H]2C)ccc(F)c1F | 616
CO/N=C(\N)c1cc(NC(=O)[C@@H]2O[C@@](C)(C(F)(F)F)[C@@H](C)[C@H]2c2ccc(F)c(F)c2OC)ccn1 | 377

----------
assay: Pharmacokinetic evaluation in dogs (i.g.); format: in vivo; conditions: both sexes, dog, plasma, po, 2 mg/kg, read-out: Area under curve AUC0-t

COMPOUND | AUC(0-t)
COc1c([C@H]2[C@H](C(=O)Nc3cc[n+]([O-])c(/C(N)=N/O)c3)O[C@@](C)(C(F)(F)F)[C@H]2C)ccc(F)c1F [Example 43] | 250 µg·h/mL

----------
experiment: Pharmacokinetic evaluation in C57 mice (i.g./i.v.); format: in vivo; conditions: both sexes, mouse, plasma, po, i.g., 2.0 mg/kg, read-out: Area under curve AUC0-t
Measured AUC(0-t), listed per entry for reference.

COMPOUND_STRING | AUC(0-t) [ng·h/mL]
CO/N=C(\N)c1cc(NC(=O)[C@@H]2O[C@@](C)(C(F)(F)F)[C@@H](C)[C@H]2c2ccc(F)c(F)c2OC)ccn1 | 1250
COc1c([C@H]2[C@H](C(=O)Nc3ccnc(/C(N)=N/O)c3)O[C@@](C)(C(F)(F)F)[C@H]2C)ccc(F)c1F | 1560

----------
Experiment: Pharmacokinetic evaluation in dogs (i.g.)
Format: in vivo
Details: both sexes, dog, plasma, po, 2 mg/kg, read-out: Plasma concentration Cmax
Protocol: Dogs were used as test animals. After intragastric (i.g.) administration of the example compound to dogs, the plasma concentrations of the compound at different time points were determined by the LC/MS/MS method. The pharmacokinetic behavior of the compound of the present disclosure in dogs was studied, and its pharmacokinetic profile was evaluated. The compound of Example 43. […]
READOUT: Cmax (ng/mL)

COMPOUND | READOUT | EXPERIMENTAL_VALUE
COc1c([C@H]2[C@H](C(=O)Nc3cc[n+]([O-])c(/C(N)=N/O)c3)O[C@@](C)(C(F)(F)F)[C@H]2C)ccc(F)c1F [Example 43] | Cmax | 5680
